Source: patent US12486259B2

System: C57/BL6 mice fed MCD diet
Method Summary: Pharmacodynamic test in methionine-choline deficient diet (MCD) model of non-alcoholic fatty liver disease
Assay type: in vivo
Condition Summary: MCD mice, 4 weeks; TM compounds 30 mpk, obeticholic acid 40 mpk, once daily by gavage
Observed Property: Weight, 4 week (g)

Compound	Target Or Test System	Result Number
CC[C@H]1[C@@H](O)[C@@H]2[C@H](CC[C@]3(C)[C@@H]([C@H](C)CCC(=O)O)CC[C@@H]23)[C@@]2(C)CC[C@@H](O)C[C@@H]12 [obeticholic acid, reference compound]	C57/BL6 mice fed MCD diet	15.72
O=C(O)c1cccc(C2CC(O)(c3cnc(OCc4c(-c5c(Cl)cccc5Cl)noc4C4CC4)cn3)C2)c1 (centres unmarked)	C57/BL6 mice fed MCD diet	14.70
O=C(O)c1cccc(N2CC(O)(c3cnc(OCc4c(-c5c(Cl)cccc5Cl)noc4C4CC4)cn3)C2)c1	C57/BL6 mice fed MCD diet	15.48
Cc1cc(C(=O)O)cc(C2CC(O)(c3cnc(OCc4c(-c5c(Cl)cccc5Cl)noc4C(C)C)cn3)C2)c1 (centres unmarked)	C57/BL6 mice fed MCD diet	15.90
CC(C)c1onc(-c2c(Cl)cccc2Cl)c1COc1cnc(C2(O)CC(c3cccc(C(=O)O)c3)C2)cn1 (centres unmarked)	C57/BL6 mice fed MCD diet	15.70
